molecules and their reported GI50
tested on: OVCAR-4; assay: NCI tumour cell line growth inhibition, 48 h
Calls of active or inactive are those of the source. Cut-off read from the data, not from the text of the source: active = GI50 up to about 1.1 µM and inactive = higher.
MEASURED_METRIC: GI50

INSERT INTO measurements (molecule, recorded_value) VALUES
  ('OCCN(CO)CO', '> 100 µM (inactive)'),
  ('CN(C)CCCN1c2ccc([N+](=O)[O-])cc2CCc2cccc([N+](=O)[O-])c21', '0.57 µM (active)'),
  ('O=[N+]([O-])C(=C1Nc2ccccc2N1)/C(Cl)=C(/Cl)N1CCOCC1', '25.4 µM (inactive)'),
  ('CC(C)=CCC[C@@H](C)C1=C(O)C(O)C(C)=C2N=C(c3ccccc3)C(=O)OC21 (stereo partly specified)', '4.41 µM (inactive)'),
  ('Cc1nn(-c2ccccc2)c2c1C(c1cc3ccccc3nc1Cl)NC(=S)N2 (stereo unspecified)', '65.3 µM (inactive)'),
  ('COc1cc2c(/C=C3/C(=O)Nc4ccccc43)c(Cl)[nH]c2cc1C', '0.0521 µM (active)');
